Would you kindly list pKi for each of these compounds?
# target_under_test: hMCHR (MCH receptor) (Homo sapiens, UniProt Q99705)
# Construct: (or internally produced); host or cells: CHO (Chinese hamster ovary) cells, membrane preparation
# Sequence (Q99705 whole entry): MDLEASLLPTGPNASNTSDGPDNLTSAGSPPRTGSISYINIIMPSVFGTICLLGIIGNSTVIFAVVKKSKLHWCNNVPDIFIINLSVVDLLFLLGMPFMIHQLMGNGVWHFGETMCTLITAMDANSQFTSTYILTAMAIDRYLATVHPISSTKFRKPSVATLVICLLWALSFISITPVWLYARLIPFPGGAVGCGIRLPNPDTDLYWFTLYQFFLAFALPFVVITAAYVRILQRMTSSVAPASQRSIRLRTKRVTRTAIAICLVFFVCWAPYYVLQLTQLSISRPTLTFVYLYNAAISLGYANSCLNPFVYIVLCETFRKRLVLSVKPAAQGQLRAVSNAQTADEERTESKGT
# procedure_summary: MCH Assay PCOP Protocol ([125I]-MCH SPA binding to hMCHR-CHO membranes);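 as to Activity (Ki range): A 0.4–50 nM B 51–500 nM C 501–2500 nM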
# condition_details: [125I]-MCH binding to hMCHR-CHO membranes; class symbols for ranges of Ki; read-out: Activity (Ki range)
pKi: −log10 of the molar value.

### Prompt # return recorded pKi for entry O=C(NCC(CCNC1CCCC1)c1ccc(-c2ccc(O)cc2)cc1)Nc1cc(Cl)cc(Cl)c1 (stereo not drawn) [Example 242]
### Response 6.30 to 7.29

### Prompt # return recorded pKi for entry O=C(NCC(CCNCCc1c[nH]c2cc(F)ccc12)c1ccc(Cl)c(Cl)c1)c1cc(C(F)(F)F)cc(C(F)(F)F)c1 (stereo not drawn) [Example 415]
### Response 5.60 to 6.30

### Prompt # return recorded pKi for entry Cc1ccc(C(CCN2CCC(N3CCCCC3)CC2)CNC(=O)Nc2cc(Cl)cc(Cl)c2)cc1 (stereo not drawn) [Example 351]
### Response 6.30 to 7.29

### Prompt # return recorded pKi for entry COc1cc(NC(=O)NCC(CCN2CCC(N3CCCCC3)CC2)c2ccc(Cl)c(Cl)c2)cc(OC)c1 (stereo not drawn) [Example 370]
### Response 5.60 to 6.30

### Prompt # return recorded pKi for entry O=C(NCC(CCN1CCC(N2CCCCC2)CC1)c1ccc(Cl)c(Cl)c1)Nc1cccc(Br)c1 (stereo not drawn) [Example 312]
### Response 6.30 to 7.29

### Prompt # return recorded pKi for entry Cc1ccc(C(CCNC2CCCCC2)CNC(=O)Nc2cc(Cl)cc(Cl)c2)cc1 (stereo not drawn) [Example 268]
### Response 6.30 to 7.29

====

# target_under_test: hMCHR (MCH receptor) (Homo sapiens, UniProt Q99705)
# Construct: (or internally produced); host or cells: CHO (Chinese hamster ovary) cells, membrane preparation
# procedure_summary: MCH Assay PCOP Protocol ([125I]-MCH SPA binding to hMCHR-CHO membranes)
# condition_details: [125I]-MCH 0.5 nM, hMCHR-CHO membranes; read-out: Activity (ranges of Ki values)
# Protocol: A reaction mixture of 10 μg hMCHR-CHO overexpressing membranes (from Receptor Biology, Inc., Beltsville, Md., or internally produced) and 100 μg/well WGA-SPA beads (from Amersham Pharmacia Biotech, Inc., Piscataway, N.J.)/100 μl was prepared in MCHR assay buffer (25 mM HEPES, pH 7.4, 10 mM NaCl, 10 mM MgCl2, 5 mM MnCl2, 0.1% BSA). […]
pKi: −log10 of the molar value.
measure: pKi

### Prompt Fill: pKi (hMCHR (MCH receptor) (Homo sapiens, UniProt Q99705)) for this compound CNCCC(CNC(=O)Nc1ccccc1)c1ccc(-c2cccc(C#N)c2)cc1 (stereo not drawn)
### Response 7.30 to 9.40

### Prompt Fill: pKi (hMCHR (MCH receptor) (Homo sapiens, UniProt Q99705)) for this compound CN(C)CCCNCCC(CNC(=O)Nc1cc(Cl)cc(Cl)c1)c1ccc(-c2cccc(OC(F)(F)F)c2)cc1 (stereo not drawn)
### Response 7.30 to 9.40

### Prompt Fill: pKi (hMCHR (MCH receptor) (Homo sapiens, UniProt Q99705)) for this compound N#Cc1cccc(-c2ccc(C(CCNC3CCCC3)CNC(=O)c3cccc(Cl)c3)cc2)c1 (stereo not drawn)
### Response 6.30 to 7.29

### Prompt Fill: pKi (hMCHR (MCH receptor) (Homo sapiens, UniProt Q99705)) for this compound Cc1ccc(C(CCNC2CCCC2)CNC(=O)Nc2cccc(Br)c2)cc1 (stereo not drawn)
### Response 5.60 to 6.30

### Prompt Fill: pKi (hMCHR (MCH receptor) (Homo sapiens, UniProt Q99705)) for this compound COc1cc(CNCCC(CNC(=O)Nc2ccc(F)c(Cl)c2)c2ccc(Cl)c(Cl)c2)cc(OC)c1OC (stereo not drawn)
### Response 6.30 to 7.29

### Prompt Fill: pKi (hMCHR (MCH receptor) (Homo sapiens, UniProt Q99705)) for this compound N#Cc1cccc(-c2ccc(C(CCNC3CCCC3)CNC(=O)c3ccc(F)c(F)c3)cc2)c1 (stereo not drawn)
### Response 6.30 to 7.29

### Prompt Fill: pKi (hMCHR (MCH receptor) (Homo sapiens, UniProt Q99705)) for this compound Cc1ccc(C(CCNC2CCCC2)CNC(=O)Nc2cccc(Cl)c2)cc1 (stereo not drawn)
### Response 5.60 to 6.30

### Prompt Fill: pKi (hMCHR (MCH receptor) (Homo sapiens, UniProt Q99705)) for this compound CN(C)CCCNCCC(C)(CNC(=O)Nc1ccc(F)c(F)c1)c1ccc(Cl)c(Cl)c1 (stereo not drawn)
### Response 5.60 to 6.30

### Prompt Fill: pKi (hMCHR (MCH receptor) (Homo sapiens, UniProt Q99705)) for this compound CN(C)CCCNCCC(CNC(=O)Nc1cc(Cl)cc(Cl)c1)c1ccc(-c2ccc(C#N)cc2)cc1 (stereo not drawn)
### Response 6.30 to 7.29

### Prompt Fill: pKi (hMCHR (MCH receptor) (Homo sapiens, UniProt Q99705)) for this compound O=C(NCC(CCNC1CCCC1)c1ccc(Cl)cc1)Nc1cc(C(F)(F)F)cc(C(F)(F)F)c1 (stereo not drawn)
### Response 6.30 to 7.29

### Prompt Fill: pKi (hMCHR (MCH receptor) (Homo sapiens, UniProt Q99705)) for this compound CN(C)CCC(CN1CCN(c2cc(Cl)cc(Cl)c2)C1=O)c1ccc(-c2cccc(C#N)c2)cc1 (stereo not drawn)
### Response 5.60 to 6.30

### Prompt Fill: pKi (hMCHR (MCH receptor) (Homo sapiens, UniProt Q99705)) for this compound COCC(=O)NC1CCN(CCC(CNC(=O)Nc2cc(Cl)cc(Cl)c2)c2ccc(Cl)cc2)C1 (stereo not drawn)
### Response 6.30 to 7.29

### Prompt Fill: pKi (hMCHR (MCH receptor) (Homo sapiens, UniProt Q99705)) for this compound N#Cc1cccc(-c2ccc(C(CCNC3CCCC3)CNC(=O)Nc3ccc(F)c(Cl)c3)cc2)c1 (stereo not drawn)
### Response 7.30 to 9.40

### Prompt Fill: pKi (hMCHR (MCH receptor) (Homo sapiens, UniProt Q99705)) for this compound COc1cc(CNCCC(CNC(=O)Nc2cccc(C(F)(F)F)c2)c2ccc(Cl)c(Cl)c2)cc(OC)c1OC (stereo not drawn)
### Response 6.30 to 7.29

### Prompt Fill: pKi (hMCHR (MCH receptor) (Homo sapiens, UniProt Q99705)) for this compound CNCCC(CNC(=O)Nc1ccc(F)c(F)c1)c1ccc(-c2cccc(C#N)c2)cc1 (stereo not drawn)
### Response 7.30 to 9.40

### Prompt Fill: pKi (hMCHR (MCH receptor) (Homo sapiens, UniProt Q99705)) for this compound CCOC(=O)N1CCC(NCCC(CNC(=O)Nc2cccc(C(F)(F)F)c2)c2ccc(C)cc2)CC1 (stereo not drawn)
### Response 6.30 to 7.29

### Prompt Fill: pKi (hMCHR (MCH receptor) (Homo sapiens, UniProt Q99705)) for this compound CN(C)CCCNCCC(CNC(=O)Nc1cc(Cl)cc(Cl)c1)c1ccc(Cl)cc1 (stereo not drawn)
### Response 5.60 to 6.30

### Prompt Fill: pKi (hMCHR (MCH receptor) (Homo sapiens, UniProt Q99705)) for this compound O=C(NCC(CCN1CCC(NC(=O)c2cccs2)C1)c1ccc(Cl)c(Cl)c1)Nc1cc(Cl)cc(Cl)c1 (stereo not drawn)
### Response 6.30 to 7.29

### Prompt Fill: pKi (hMCHR (MCH receptor) (Homo sapiens, UniProt Q99705)) for this compound CNCCC(CNC(=O)c1cc(F)cc(F)c1)c1ccc(-c2cccc(C#N)c2)cc1 (stereo not drawn)
### Response 6.30 to 7.29

### Prompt Fill: pKi (hMCHR (MCH receptor) (Homo sapiens, UniProt Q99705)) for this compound O=C(NCC(CCNC1CCCC1)c1ccc(Cl)cc1)Nc1ccc(Cl)c(Cl)c1 (stereo not drawn)
### Response 6.30 to 7.29

### Prompt Fill: pKi (hMCHR (MCH receptor) (Homo sapiens, UniProt Q99705)) for this compound N#Cc1cccc(-c2ccc(C(CCNC3CC3)CNC(=O)c3cc(F)cc(F)c3)cc2)c1 (stereo not drawn)
### Response 6.30 to 7.29

### Prompt Fill: pKi (hMCHR (MCH receptor) (Homo sapiens, UniProt Q99705)) for this compound O=C(NCC(CCN1CCC(NC(=O)C2CCC2)CC1)c1ccc(Cl)c(Cl)c1)Nc1cc(Cl)cc(Cl)c1 (stereo not drawn)
### Response 6.30 to 7.29

### Prompt Fill: pKi (hMCHR (MCH receptor) (Homo sapiens, UniProt Q99705)) for this compound COc1cc(CNCCC(CNC(=O)Nc2ccc(F)c([N+](=O)[O-])c2)c2ccc(Cl)c(Cl)c2)cc(OC)c1OC (stereo not drawn)
### Response 6.30 to 7.29

### Prompt Fill: pKi (hMCHR (MCH receptor) (Homo sapiens, UniProt Q99705)) for this compound Cc1ccc(C(CCN2CCC(NC(=O)C3CCC3)C2)CNC(=O)Nc2cc(Cl)cc(Cl)c2)cc1 (stereo not drawn)
### Response 6.30 to 7.29

### Prompt Fill: pKi (hMCHR (MCH receptor) (Homo sapiens, UniProt Q99705)) for this compound CC(=O)Nc1cccc(-c2cccc(C(CCNCCCN(C)C)CNC(=O)Nc3cc(Cl)cc(Cl)c3)c2)c1 (stereo not drawn)
### Response 5.60 to 6.30

### Prompt Fill: pKi (hMCHR (MCH receptor) (Homo sapiens, UniProt Q99705)) for this compound N#Cc1cccc(-c2ccc(C(CCNC3CC3)CNC(=O)c3ccc(F)c(F)c3)cc2)c1 (stereo not drawn)
### Response 6.30 to 7.29

### Prompt Fill: pKi (hMCHR (MCH receptor) (Homo sapiens, UniProt Q99705)) for this compound COCC(=O)NC1CCN(CCC(CNC(=O)Nc2cc(Cl)cc(Cl)c2)c2ccc(C)cc2)C1 (stereo not drawn)
### Response 5.60 to 6.30
